Attribution: PubChem BioAssay (NCI)

System: LOX IMVI melanoma
Test Protocol: NCI-60 one-dose screen, 48 h
Recorded Conditions: 10 µM unless noted
The panel holds about 83,000 compounds, 20% with a hit somewhere; the sample as a whole holds those more often. Active and inactive are the calls of the source. The calls were made as follows: active = growth percent below 10; inactive = the rest.
Classes used: active, inactive

compound="CC1(O)CC(c2nc(-c3ccc4ccc(-c5ccccc5)nc4c3)c3c(N)nccn23)C1 (stereo not given)" qualitative_label=inactive
compound="CC(=O)OC1Oc2ccccc2-c2oc(=O)c(-c3cc4ccc(N(C)C)cc4oc3=O)cc21 (stereo not given)" qualitative_label=inactive
compound=CNC(=O)c1cc(Oc2ccc(NC(=O)Nc3cc(C(C)(C)C)nn3-c3ccc4ncccc4c3)c(F)c2)ccn1 qualitative_label=active
compound=Cc1ccc(NC(=O)Nc2ccc(Nc3ncnc4sc5c(c34)CCOC5)cc2)cc1Cl qualitative_label=inactive
compound=CC(C)[C@@H]1CC[C@@H]2[C@@H]1[C@H](OC(=O)/C=C/c1ccccc1)[C@]1(C(C)C)C[C@@H](OC(=O)CO)[C@@]2(C)O1 qualitative_label=inactive
